Target: Receptor tyrosine-protein kinase erbB-4 (Homo sapiens)
Test: Inhibition of HER4 (unknown origin) in presence of radiolabelled gammaATP by radioisotope filter binding assay
ATTRIBUTE_MEASURED: pIC50
As a rule, pIC50 stands for the negative log10 of the concentration, concentration in M.

Below, each entry is followed by its recorded pIC50 result.
{"COMPOUND": "N#Cc1cnc2cc(OC[C@@H](O)CO)c(NC(=O)C3CSSC3)cc2c1Nc1ccc(OCc2cccc(F)c2)c(Cl)c1", "pIC50": 9.35}
{"COMPOUND": "C=CC(=O)Nc1cc2c(Nc3ccc(F)c(Cl)c3)ccnc2cc1OCCC1CC12CCN(C)CC2 (stereo not given)", "pIC50": 8.92}
{"COMPOUND": "N#Cc1cnc2cc(OC[C@H](O)CO)c(NC(=O)CC3CSSC3)cc2c1Nc1ccc(OCc2cccc(F)c2)c(Cl)c1", "pIC50": 9.72}

// query Return reported pIC50; argument: N#Cc1cnc2ccc(NC(=O)C3CSSC3)cc2c1Nc1ccc(OCc2cccc(F)c2)c(Cl)c1
// result 6.55

// query Repeat for the following compound: N#Cc1cnc2cc(OC[C@@H](O)CO)c(NC(=O)CC3CSSC3)cc2c1Nc1ccc(OCc2cccc(F)c2)c(Cl)c1
// result 10.52

###

Biological target: Epidermal growth factor receptor (Homo sapiens, UniProt P00533, L858R)
Sequence (P00533 25-1210 L858R limits assumed): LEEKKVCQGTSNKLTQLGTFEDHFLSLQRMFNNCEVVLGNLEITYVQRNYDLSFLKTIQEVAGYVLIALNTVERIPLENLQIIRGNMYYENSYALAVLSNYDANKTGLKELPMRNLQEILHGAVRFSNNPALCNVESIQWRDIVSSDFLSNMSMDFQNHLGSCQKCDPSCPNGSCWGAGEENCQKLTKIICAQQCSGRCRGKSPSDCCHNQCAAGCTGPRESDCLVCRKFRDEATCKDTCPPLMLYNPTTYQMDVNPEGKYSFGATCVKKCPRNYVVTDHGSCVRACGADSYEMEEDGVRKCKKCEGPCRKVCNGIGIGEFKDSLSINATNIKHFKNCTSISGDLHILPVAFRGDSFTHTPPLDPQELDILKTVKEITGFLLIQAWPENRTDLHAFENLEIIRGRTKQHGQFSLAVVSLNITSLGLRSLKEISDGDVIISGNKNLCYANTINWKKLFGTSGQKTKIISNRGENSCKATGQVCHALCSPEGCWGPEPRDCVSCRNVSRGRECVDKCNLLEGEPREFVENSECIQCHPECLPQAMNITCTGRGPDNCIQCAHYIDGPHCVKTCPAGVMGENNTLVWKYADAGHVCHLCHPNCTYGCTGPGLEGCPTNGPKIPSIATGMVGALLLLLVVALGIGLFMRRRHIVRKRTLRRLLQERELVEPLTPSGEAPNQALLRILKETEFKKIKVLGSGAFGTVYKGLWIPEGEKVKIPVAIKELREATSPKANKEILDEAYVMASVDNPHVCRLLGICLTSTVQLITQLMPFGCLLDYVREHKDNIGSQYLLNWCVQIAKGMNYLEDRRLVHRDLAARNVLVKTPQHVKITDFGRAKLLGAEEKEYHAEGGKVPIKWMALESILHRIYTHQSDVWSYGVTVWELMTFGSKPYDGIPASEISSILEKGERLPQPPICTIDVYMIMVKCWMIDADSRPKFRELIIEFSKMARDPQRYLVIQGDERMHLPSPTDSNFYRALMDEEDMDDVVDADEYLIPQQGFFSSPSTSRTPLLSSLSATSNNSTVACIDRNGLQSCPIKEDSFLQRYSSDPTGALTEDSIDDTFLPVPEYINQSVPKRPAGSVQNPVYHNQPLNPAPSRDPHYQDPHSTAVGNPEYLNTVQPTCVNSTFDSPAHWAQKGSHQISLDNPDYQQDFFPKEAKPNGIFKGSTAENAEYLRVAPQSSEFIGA
Assay: Inhibition of recombinant human partial length EGFR L858R mutant (669 to 1011 residues) expressed in bacterial expression system by competitive binding assay
ATTRIBUTE_MEASURED: pKd
FYI, pKd means -log10 of a concentration in mol per litre.

// query What is its pKd for Epidermal growth factor receptor (Homo sapiens, UniProt P00533, L858R)? Entry: N#Cc1cnc2cc(OC[C@@H](O)CO)c(NC(=O)CC3CSSC3)cc2c1Nc1ccc(OCc2cccc(F)c2)c(Cl)c1
// result 8.04

###

Target: Epidermal growth factor receptor (Homo sapiens)
Experiment: Inhibition of wild type EGFR (unknown origin) in presence of radiolabelled gammaATP by radioisotope filter binding assay
Reported pIC50 values for a set of molecules
A value of pIC50 is the negative decimal logarithm of a concentration given in moles per litre.

Worked cases, pIC50 given:
{"STRUCTURE_SMILES": "N#Cc1cnc2cc(OC[C@@H](O)CO)c(NC(=O)CC3CSSC3)cc2c1Nc1ccc(OCc2cccc(F)c2)c(Cl)c1", "ATTRIBUTE_MEASURED": "pIC50", "OBSERVED_VALUE": 8.62}
{"STRUCTURE_SMILES": "N#Cc1cnc2cc(OC[C@H](O)CO)c(NC(=O)CC3CSSC3)cc2c1Nc1ccc(OCc2cccc(F)c2)c(Cl)c1", "ATTRIBUTE_MEASURED": "pIC50", "OBSERVED_VALUE": 8.70}

Now look at this one.
// query Query for Epidermal growth factor receptor (Homo sapiens): what pIC50 does the record show for N#Cc1cnc2cc(OC[C@@H](O)CO)c(NC(=O)C3CSSC3)cc2c1Nc1ccc(OCc2cccc(F)c2)c(Cl)c1 ?
// result 8.82

###

Biological target: UniProtKB Q15303
ATTRIBUTE_MEASURED: IC50 (nM)
Please give a number only; it is taken to be in nM.

// query May I ask what IC50 has been recorded for N#Cc1cnc2cc(OC[C@@H](O)CO)c(NC(=O)CC3CSSC3)cc2c1Nc1ccc(OCc2cccc(F)c2)c(Cl)c1 ?
// result 12.2

###

Target: Receptor tyrosine-protein kinase erbB-2 (Homo sapiens)
ATTRIBUTE_MEASURED: pIC50
Note on pIC50: it is the negative log10 of concentration, concentration in mol/L.

// query Form field: reported pIC50 of N#Cc1cnc2cc(OC[C@@H](O)CO)c(NC(=O)CC3CSSC3)cc2c1Nc1ccc(OCc2cccc(F)c2)c(Cl)c1
// result 6.95

###

Target: Epidermal growth factor receptor (Homo sapiens, UniProt P00533, L858R)
Assay: Inhibition of recombinant human N-terminal GST-tagged EGFR L858R mutant (669 to 1210 residues) expressed in baculovirus expression system by competitive binding assay
ATTRIBUTE_MEASURED: IC50 (nM)
All answers are understood in nM, so give the number only.

// query # returns recorded IC50 (system: Epidermal growth factor receptor (Homo sapiens, UniProt P00533, L858R)) for N#Cc1cnc2cc(OC[C@@H](O)CO)c(NC(=O)CC3CSSC3)cc2c1Nc1ccc(OCc2cccc(F)c2)c(Cl)c1
// result 18.1

###

Biological target: Receptor tyrosine-protein kinase erbB-3 (Homo sapiens)
Sequence (P21860 whole entry, the tested form may be a part): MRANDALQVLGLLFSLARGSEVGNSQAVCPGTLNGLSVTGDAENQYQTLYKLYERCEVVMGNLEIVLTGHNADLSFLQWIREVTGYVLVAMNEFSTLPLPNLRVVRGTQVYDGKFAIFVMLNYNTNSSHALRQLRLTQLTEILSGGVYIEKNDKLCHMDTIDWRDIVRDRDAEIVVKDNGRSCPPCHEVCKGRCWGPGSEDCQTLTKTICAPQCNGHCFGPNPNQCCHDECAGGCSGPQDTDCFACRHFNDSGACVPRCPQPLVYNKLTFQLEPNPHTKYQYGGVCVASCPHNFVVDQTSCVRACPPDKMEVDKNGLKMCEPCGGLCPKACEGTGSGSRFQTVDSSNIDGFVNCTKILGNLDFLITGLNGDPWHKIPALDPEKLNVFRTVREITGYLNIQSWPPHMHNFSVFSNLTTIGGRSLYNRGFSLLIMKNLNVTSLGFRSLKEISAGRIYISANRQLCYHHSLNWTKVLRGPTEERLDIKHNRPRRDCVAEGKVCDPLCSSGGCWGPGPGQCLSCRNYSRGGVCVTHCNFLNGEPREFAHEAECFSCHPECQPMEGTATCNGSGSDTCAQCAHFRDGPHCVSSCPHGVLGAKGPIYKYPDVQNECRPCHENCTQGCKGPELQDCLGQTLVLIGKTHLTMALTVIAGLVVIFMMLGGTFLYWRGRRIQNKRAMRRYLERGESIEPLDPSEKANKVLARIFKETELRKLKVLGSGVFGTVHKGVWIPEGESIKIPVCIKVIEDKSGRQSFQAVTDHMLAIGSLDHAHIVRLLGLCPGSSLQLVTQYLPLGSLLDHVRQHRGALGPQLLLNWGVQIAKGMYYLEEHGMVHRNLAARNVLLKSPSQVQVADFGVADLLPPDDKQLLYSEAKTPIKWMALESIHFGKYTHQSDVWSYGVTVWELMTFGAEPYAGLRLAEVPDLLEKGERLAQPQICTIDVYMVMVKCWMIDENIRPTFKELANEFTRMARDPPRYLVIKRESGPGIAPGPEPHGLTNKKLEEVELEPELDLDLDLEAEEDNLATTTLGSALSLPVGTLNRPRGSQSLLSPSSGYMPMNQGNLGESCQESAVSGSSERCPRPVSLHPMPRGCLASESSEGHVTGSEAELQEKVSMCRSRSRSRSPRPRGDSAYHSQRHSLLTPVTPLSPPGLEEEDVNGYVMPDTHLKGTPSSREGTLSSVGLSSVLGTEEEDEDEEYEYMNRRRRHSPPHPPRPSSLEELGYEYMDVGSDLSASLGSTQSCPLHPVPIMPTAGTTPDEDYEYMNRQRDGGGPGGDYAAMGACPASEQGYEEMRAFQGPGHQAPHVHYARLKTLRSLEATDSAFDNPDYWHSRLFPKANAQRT
Assay: Inhibition of recombinant human wild type partial length HER3 (684 to 987 residues) expressed in mammalian expression system by competitive binding assay
ATTRIBUTE_MEASURED: Kd (nM)
API: value field is a number in nM; no unit string.

// query What value of measured Kd is listed for N#Cc1cnc2cc(OC[C@@H](O)CO)c(NC(=O)CC3CSSC3)cc2c1Nc1ccc(OCc2cccc(F)c2)c(Cl)c1 ?
// result 380

###

Target: Receptor tyrosine-protein kinase erbB-4 (Homo sapiens, UniProt Q15303)
Sequence (Q15303 whole entry, the tested form may be a part): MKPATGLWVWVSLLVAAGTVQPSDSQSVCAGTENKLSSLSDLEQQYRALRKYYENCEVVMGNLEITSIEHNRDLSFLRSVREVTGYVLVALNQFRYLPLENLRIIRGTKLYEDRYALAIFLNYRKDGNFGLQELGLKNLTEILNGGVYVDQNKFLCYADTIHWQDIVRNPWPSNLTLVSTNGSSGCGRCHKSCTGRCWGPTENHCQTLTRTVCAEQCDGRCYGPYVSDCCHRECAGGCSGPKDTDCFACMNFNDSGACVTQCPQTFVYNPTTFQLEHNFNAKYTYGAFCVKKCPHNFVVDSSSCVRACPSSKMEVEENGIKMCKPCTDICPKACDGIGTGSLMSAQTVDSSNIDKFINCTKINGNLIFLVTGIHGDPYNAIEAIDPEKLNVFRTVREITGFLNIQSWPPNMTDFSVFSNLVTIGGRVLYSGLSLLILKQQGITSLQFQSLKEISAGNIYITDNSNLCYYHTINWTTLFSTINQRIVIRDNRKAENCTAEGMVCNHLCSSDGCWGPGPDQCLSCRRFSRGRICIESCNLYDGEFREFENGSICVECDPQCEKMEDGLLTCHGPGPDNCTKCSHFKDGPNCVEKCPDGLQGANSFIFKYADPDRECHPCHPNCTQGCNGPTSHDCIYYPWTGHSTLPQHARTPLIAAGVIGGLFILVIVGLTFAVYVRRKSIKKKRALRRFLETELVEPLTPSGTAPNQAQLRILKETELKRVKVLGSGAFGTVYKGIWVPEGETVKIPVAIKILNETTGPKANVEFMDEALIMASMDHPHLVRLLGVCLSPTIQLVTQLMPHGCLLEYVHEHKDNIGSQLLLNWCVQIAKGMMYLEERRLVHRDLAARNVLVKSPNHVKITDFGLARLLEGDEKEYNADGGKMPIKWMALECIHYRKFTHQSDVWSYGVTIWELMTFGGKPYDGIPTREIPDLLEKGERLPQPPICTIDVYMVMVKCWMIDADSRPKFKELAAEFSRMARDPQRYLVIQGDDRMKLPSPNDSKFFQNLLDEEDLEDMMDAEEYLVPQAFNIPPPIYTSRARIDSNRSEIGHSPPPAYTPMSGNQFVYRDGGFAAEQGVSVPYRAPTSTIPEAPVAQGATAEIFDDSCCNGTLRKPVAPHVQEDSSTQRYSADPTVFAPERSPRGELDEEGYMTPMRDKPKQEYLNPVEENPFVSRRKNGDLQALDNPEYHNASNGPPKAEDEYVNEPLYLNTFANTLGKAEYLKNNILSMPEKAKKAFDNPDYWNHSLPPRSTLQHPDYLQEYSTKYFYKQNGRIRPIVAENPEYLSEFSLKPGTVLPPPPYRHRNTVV
Test: Inhibition of recombinant human wild type partial length HER4 (690 to 994 residues) expressed in bacterial expression system by competitive binding assay
ATTRIBUTE_MEASURED: pKd
In plain terms, pKd is the concentration in mol/L turned into minus its base-10 logarithm.

// query Look up pKd for this compound: N#Cc1cnc2cc(OC[C@@H](O)CO)c(NC(=O)CC3CSSC3)cc2c1Nc1ccc(OCc2cccc(F)c2)c(Cl)c1
// result 8.22

###

Target: Epidermal growth factor receptor (Homo sapiens, UniProt P00533, EX19DEL)
Sequence (P00533 whole entry, looked up, stated change not applied): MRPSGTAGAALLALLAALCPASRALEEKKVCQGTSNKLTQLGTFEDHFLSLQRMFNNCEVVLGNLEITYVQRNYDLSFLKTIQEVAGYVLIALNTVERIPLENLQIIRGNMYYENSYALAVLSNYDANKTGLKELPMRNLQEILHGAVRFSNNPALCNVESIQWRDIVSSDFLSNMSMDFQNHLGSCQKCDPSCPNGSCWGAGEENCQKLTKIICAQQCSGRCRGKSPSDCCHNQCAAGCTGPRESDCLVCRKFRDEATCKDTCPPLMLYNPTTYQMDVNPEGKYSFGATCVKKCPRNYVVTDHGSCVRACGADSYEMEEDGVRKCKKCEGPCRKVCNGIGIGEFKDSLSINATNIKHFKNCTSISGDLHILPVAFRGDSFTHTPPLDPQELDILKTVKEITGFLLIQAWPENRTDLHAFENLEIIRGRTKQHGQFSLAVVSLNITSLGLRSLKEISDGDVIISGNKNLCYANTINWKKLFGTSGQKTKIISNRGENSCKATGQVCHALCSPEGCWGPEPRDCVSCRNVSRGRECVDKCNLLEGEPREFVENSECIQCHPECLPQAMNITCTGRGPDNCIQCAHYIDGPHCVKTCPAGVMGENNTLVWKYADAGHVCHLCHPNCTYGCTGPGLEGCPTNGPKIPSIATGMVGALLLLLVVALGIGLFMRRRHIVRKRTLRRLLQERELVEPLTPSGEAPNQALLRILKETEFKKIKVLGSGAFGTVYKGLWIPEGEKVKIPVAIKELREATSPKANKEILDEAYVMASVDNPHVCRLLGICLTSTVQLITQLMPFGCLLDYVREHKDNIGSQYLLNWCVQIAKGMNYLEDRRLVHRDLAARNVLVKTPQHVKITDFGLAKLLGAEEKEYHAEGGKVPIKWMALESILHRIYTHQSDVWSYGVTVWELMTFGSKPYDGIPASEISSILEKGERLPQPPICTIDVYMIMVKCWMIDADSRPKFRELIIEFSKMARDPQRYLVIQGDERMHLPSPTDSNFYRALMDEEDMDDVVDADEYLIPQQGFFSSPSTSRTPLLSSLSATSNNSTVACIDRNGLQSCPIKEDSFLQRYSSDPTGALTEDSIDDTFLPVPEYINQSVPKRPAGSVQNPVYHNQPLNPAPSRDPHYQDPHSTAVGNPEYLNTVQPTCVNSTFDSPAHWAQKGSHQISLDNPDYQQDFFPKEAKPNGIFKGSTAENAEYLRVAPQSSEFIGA
Experiment: Inhibition of EGFR ex19del mutant (unknown origin) in presence of radiolabelled gammaATP by radioisotope filter binding assay
ATTRIBUTE_MEASURED: pIC50
Lab note: report pIC50 as minus log10 of the concentration in molar units, number only.

// query Look up pIC50 for this compound: N#Cc1cnc2cc(OC[C@@H](O)CO)c(NC(=O)CC3CSSC3)cc2c1Nc1ccc(OCc2cccc(F)c2)c(Cl)c1
// result 5.70

// query // query: N#Cc1cnc2cc(OC[C@@H](O)CO)c(NC(=O)C3CSSC3)cc2c1Nc1ccc(OCc2cccc(F)c2)c(Cl)c1
// result 6.69

// query Try the compound N#Cc1cnc2cc(OC[C@H](O)CO)c(NC(=O)CC3CSSC3)cc2c1Nc1ccc(OCc2cccc(F)c2)c(Cl)c1
// result 5.89

Values were extracted from ChEMBL document CHEMBL4622931.
